assay: Selectivity index, ratio of IC50 for rat H9c2 cells to IC50 for antitrypanosomal activity against Trypanosoma cruzi Tulahuen trypomastigotes beta-galactosidase infected in rat H9c2 cells; format: toxicity, cell-based; details: read-out: Ratio IC50
result.type: selectivity ratio

Take a look at these entries with their results.
1. O=C(Nc1nc2cc(C(F)(F)F)c(F)cc2s1)C1CC1 : 1
2. O=C(C1CC1)N(CCO)c1nc2ccc(Cl)cc2s1 : 1
3. CC(C)(F)C(=O)Nc1nc2cc(F)c(C(F)(F)F)cc2s1 : > 50
4. Clc1ccc2nc(NCC3CC3)sc2c1 : > 2

Form: molecule = `O=C(Nc1nc2cc(Cl)ccc2s1)C1CC1` ; selectivity ratio = > 158

Per the record, `CCc1ccc2nc(NC(=O)C3CC3)sc2c1` has selectivity ratio of > 357

Documented selectivity ratio of `CCOc1ccc2nc(NC(=O)C3CC3)sc2c1` : > 20
